Entries and their measured Trimeric HA Binding RLU follow.
# SYSTEM: recombinant homotrimeric HA, A/Wisconsin/67/05 H3N2 (Influenza A virus A/Wisconsin/67/05 (H3N2))
# ASSAY NOTES: trimeric HA microarray, transfection set 5
# EXPERIMENTAL CONTEXT: remark: other sources report otherwise
TEST READOUT: Trimeric HA Binding RLU (RLU)

>>> reported_value("TCN-558 (5248_H10b) (antibody, V domains shown) VH: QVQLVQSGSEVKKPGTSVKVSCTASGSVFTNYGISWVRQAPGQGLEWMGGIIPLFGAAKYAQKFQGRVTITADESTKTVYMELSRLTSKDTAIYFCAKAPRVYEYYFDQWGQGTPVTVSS VL: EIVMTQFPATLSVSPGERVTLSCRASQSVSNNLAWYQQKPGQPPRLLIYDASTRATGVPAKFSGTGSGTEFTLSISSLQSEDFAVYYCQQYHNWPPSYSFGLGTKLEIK")
26600
>>> reported_value("TCN-545 (5082_I15) (antibody, V domains shown) VH: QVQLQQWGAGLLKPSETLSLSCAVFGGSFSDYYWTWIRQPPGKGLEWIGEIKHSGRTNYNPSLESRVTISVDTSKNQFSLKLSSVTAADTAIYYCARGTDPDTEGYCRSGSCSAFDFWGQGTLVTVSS VL: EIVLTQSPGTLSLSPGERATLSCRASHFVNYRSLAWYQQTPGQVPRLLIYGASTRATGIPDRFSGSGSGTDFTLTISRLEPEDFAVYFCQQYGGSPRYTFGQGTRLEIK")
32000
